System: K12877-001-R-J1-PDC complex spheroid viability;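 note: tumour cells co-cultured with HUVEC and mesenchymal stem cells in spheroids; spheroids exposed to agents for one week before readout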
procedureText: Anticancer human tumor K12877-001-R-J1-PDC patient-derived lung adenocarcinoma cell line growth inhibition [RAS]
studyConditions: second compound 1 µM; first compound 0.00949 µM; active compounds read low
parameter: viability, T/C

Known viability, T/C results, listed for orientation:
CC1(C)CCC(Nc2ncc(C(F)(F)F)c(-c3c[nH]c4c(P(C)(C)=O)c(C#N)ccc34)n2)CN1 (centres undefined) + C=CC(=O)N1CCN(c2nc(OCC3CCCN3C)nc3c(F)c(-c4nc(N)cc(C)c4C(F)(F)F)c(Cl)cc23)C(C)C1; 70.5%
CCc1c2c(nc3ccc(O)cc13)-c1cc3c(c(=O)n1C2)COC(=O)[C@]3(O)CC + C#Cc1c(F)ccc2cc(O)cc(-c3ncc4c(N5CC6CCC(C5)N6)nc(OCC56CCCN5CC(F)C6)nc4c3F)c12; 11.7%
CC1(C)CCC(Nc2ncc(C(F)(F)F)c(-c3c[nH]c4c(P(C)(C)=O)c(C#N)ccc34)n2)CN1 (centres undefined) + C#Cc1c(F)ccc2cc(O)cc(-c3ncc4c(N5CC6CCC(C5)N6)nc(OCC56CCCN5CC(F)C6)nc4c3F)c12; 104%

Challenge: Tell me viability, T/C reported for CCc1c2c(nc3ccc(O)cc13)-c1cc3c(c(=O)n1C2)COC(=O)[C@]3(O)CC + C=CC(=O)N1CCN(c2nc(OCC3CCCN3C)nc3c(F)c(-c4nc(N)cc(C)c4C(F)(F)F)c(Cl)cc23)C(C)C1
Response given: 8.23%
